- Target Or Test System: CDK12 (Homo sapiens (Human))
- Sequence (Q9NYV4 whole entry, looked up, species assumed): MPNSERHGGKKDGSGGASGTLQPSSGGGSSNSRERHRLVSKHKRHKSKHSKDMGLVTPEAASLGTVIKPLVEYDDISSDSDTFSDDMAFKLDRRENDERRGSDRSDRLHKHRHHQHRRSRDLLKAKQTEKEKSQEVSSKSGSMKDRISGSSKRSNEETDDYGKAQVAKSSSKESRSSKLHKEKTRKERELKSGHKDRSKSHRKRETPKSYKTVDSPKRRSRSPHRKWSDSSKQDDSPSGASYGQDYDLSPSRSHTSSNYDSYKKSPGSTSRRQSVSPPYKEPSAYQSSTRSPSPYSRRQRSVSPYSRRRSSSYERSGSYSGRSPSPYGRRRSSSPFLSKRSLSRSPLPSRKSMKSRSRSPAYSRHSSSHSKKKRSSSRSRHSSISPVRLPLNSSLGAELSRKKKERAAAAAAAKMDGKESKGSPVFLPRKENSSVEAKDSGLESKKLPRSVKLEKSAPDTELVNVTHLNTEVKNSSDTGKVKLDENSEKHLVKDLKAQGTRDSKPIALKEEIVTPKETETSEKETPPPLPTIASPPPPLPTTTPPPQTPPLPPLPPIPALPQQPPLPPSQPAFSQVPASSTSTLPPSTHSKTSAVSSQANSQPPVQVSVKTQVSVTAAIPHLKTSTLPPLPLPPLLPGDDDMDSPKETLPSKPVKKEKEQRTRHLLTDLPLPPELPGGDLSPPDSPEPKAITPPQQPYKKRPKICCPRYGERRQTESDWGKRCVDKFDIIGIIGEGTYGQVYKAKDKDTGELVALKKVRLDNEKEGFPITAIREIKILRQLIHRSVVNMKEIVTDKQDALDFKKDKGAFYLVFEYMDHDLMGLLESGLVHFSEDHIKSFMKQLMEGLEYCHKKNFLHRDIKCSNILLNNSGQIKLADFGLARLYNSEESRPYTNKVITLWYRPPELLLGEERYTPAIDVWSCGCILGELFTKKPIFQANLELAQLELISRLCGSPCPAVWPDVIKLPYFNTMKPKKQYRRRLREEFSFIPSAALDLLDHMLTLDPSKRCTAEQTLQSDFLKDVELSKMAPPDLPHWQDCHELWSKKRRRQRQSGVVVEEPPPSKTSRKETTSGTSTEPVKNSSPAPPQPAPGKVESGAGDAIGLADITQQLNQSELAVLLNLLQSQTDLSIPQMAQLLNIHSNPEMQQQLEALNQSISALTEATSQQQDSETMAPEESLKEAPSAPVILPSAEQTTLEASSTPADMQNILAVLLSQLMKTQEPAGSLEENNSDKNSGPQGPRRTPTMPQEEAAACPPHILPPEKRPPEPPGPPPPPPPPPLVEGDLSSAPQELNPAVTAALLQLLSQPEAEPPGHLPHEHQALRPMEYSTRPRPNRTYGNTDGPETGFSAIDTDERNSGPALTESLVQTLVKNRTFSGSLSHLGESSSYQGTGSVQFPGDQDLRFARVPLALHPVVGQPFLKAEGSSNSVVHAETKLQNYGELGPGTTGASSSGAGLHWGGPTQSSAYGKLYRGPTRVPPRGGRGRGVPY
- Sequence (O75909 whole entry partner, looked up, species assumed): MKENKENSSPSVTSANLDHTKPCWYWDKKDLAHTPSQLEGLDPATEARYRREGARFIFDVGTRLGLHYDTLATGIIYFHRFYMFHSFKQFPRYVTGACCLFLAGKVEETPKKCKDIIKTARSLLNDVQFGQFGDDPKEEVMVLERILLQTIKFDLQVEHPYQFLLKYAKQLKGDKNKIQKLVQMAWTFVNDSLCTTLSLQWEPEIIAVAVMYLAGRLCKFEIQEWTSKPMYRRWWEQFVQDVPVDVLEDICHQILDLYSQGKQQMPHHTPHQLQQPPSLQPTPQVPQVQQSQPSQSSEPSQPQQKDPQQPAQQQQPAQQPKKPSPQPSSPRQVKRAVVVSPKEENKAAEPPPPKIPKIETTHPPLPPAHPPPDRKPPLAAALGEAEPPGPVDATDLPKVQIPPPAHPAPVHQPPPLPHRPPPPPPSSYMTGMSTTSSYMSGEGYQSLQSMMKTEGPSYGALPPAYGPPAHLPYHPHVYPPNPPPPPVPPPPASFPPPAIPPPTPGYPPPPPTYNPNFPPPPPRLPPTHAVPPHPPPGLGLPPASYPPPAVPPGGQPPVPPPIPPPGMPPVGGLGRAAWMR
In this section, each of the compounds is paired with its reported pIC50.
pIC50 field: float, defined as -log10 of concentration (mol/L).

Using known records, supply pIC50 for C=CC(=O)N1CC=C(c2ccc(C(C)C(=O)Nc3cc(C4CC4)[nH]n3)cc2F)CC1 (stereo not drawn) [Compound 44]
8.05

Using known records, supply pIC50 for CC#CC(=O)N1CCC=C(c2ccc(C(C)C(=O)Nc3cc(C4CC4)[nH]n3)cn2)C1 (stereo not drawn) [Compound 52]
6.64

Using known records, supply pIC50 for C=CC(=O)N1CC=C(c2ccc(C(C)C(=O)Nc3cc(C4CC4)[nH]n3)cn2)CC1 (single isomer, unassigned) [Compound 5]
5.88

Using known records, supply pIC50 for C=CC(=O)N1CCC=C(c2ccc(C(C)C(=O)Nc3cc(C4CC4)[nH]n3)cn2)C1 (single isomer, unassigned) [Compound 36]
6.16

Using known records, supply pIC50 for C=CC(=O)N1CCC=C(c2ccc(C(C)C(=O)Nc3cc(C4CC4)[nH]n3)cn2)C1 (single isomer, unassigned) [Compound 37]
7.54

Turning now to a further record.
Using known records, supply pIC50 for C=CC(=O)N1CCN(c2ccc(C(C)C(=O)Nc3cc(C4CC4)[nH]n3)cn2)CC1 (stereo not drawn) [Compound 20]
7.00
